Recorded pIC50 for the following compounds
Tested Target: MYT1 protein (Homo sapiens (Human), UniProt Q99640)
Sequence (Q99640 whole entry): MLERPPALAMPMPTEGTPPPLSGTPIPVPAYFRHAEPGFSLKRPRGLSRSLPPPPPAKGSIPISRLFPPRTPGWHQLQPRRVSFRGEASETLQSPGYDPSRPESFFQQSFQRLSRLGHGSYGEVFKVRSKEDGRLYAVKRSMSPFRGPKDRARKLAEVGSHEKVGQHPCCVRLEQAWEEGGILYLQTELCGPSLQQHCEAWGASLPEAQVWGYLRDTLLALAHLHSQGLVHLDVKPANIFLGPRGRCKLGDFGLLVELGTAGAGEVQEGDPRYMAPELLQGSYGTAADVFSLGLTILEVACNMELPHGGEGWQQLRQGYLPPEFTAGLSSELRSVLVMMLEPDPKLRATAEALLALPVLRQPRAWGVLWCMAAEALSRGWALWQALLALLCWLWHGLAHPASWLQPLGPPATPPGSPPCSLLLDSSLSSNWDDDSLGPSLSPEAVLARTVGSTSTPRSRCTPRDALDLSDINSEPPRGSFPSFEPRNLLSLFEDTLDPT
Method Notes: Test for binding to ATP binding site of MYT1 (Kinase Tracer 178 / Eu-Anti-GST antibody TR-FRET)
Experimental Context: ATP binding site of MYT1, 30 minutes at room temperature
pIC50: −log10 of the molar value.

# Structure Smiles, pIC50
data = [
    ("Nc1c(-c2ccc(F)c3[nH]ncc23)c2cc(N3CCC4(COC4)C3)c3ncccc3c2[nH]c1=O", 8.54),
    ("CN1CCC(c2cc3c(-c4ccc(F)c5[nH]ncc45)c(N)c(=O)[nH]c3c3ncccc23)CC1", 8.54),
    ("Nc1c(-c2ccc(F)c3[nH]ncc23)c2cc(OCC3CCC3)c3ncccc3c2[nH]c1=O", 8.49),
]

* * *

Tested Target: MYT1 protein (Homo sapiens (Human), UniProt Q99640)
Method Notes: Test for binding to ATP binding site of MYT1 (Kinase Tracer 178 / Eu-Anti-GST antibody TR-FRET)
Experimental Context: ATP binding site of MYT1, 30 minutes at room temperature
Description: The binding capacity of each compound to the ATP binding site of MYT1 Kinase protein was evaluated. […] Thereafter, fluorescence wavelengths of 665 nm and 615 nm generated by irradiation with excitation light of 340 nm were detected using Envision (manufactured by PerkinElmer). The proportion of Tracer bound to MYT1 protein was calculated for every condition by dividing the intensity at the fluorescence wavelength of 665 nm by the intensity at the fluorescence wavelength of 615 nm.
Decide using IC50 alone. Strictly below 20 nM: 1. Equal to or above 20 nM: -1.

# Compound, Label
rows = [
    ("Nc1c(-c2ccc(F)c3[nH]ncc23)c2cc(C3CCN(C4CCOCC4)CC3)c3ncccc3c2[nH]c1=O [Compound C137]", 1),
    ("CO[C@H](C)COc1cc2c(-c3ccc(F)c4[nH]ncc34)c(N)c(=O)[nH]c2c2cccnc12 [Compound C50]", 1),
    ("Cc1cc2c(-c3ccc(F)c4[nH]ncc34)c(N)c(=O)[nH]c2c2scnc12 [Compound K2]", 1),
    ("CC(C)(O)C#Cc1cc2c(-c3ccc(F)c4[nH]ncc34)c(N)c(=O)[nH]c2c2cccnc12 [Compound C102]", 1),
    ("Nc1c(-c2cccc(O)c2)c2cc(Br)c3ccccc3c2[nH]c1=O [Compound B4]", -1),
    ("Nc1c(-c2ccc(F)c3[nH]ncc23)c2cc(C3CCC(F)(F)CC3)c3ncccc3c2[nH]c1=O [Compound C163]", -1),
    ("Nc1c(-c2ccc(F)c3[nH]ncc23)c2cc(Cl)c3ccccc3c2[nH]c1=O [Compound B34]", -1),
    ("Cn1ccc(-c2c(N)c(=O)[nH]c3ccc(Cl)cc23)cc1=O [Compound A52]", -1),
    ("COCCOc1cc2c(-c3ccc(F)c4[nH]ncc34)c(N)c(=O)[nH]c2c2cccnc12 [Compound C14]", 1),
    ("Nc1c(-c2ccc(Cl)c3[nH]ncc23)c2cc(Cl)c(OC(F)F)cc2[nH]c1=O [Compound A30]", -1),
    ("Nc1c(-c2ccc(F)c3[nH]ncc23)c2cc(OCCCF)c3ncccc3c2[nH]c1=O [Compound C19]", 1),
    ("CC(C)c1cc2c(-c3ccc(F)c4[nH]ncc34)c(N)c(=O)[nH]c2c2cccnc12 [Compound C104]", 1),
]
